- ASSAY SYSTEM: human A1 AR (Homo sapiens)
- Construct: expressed in transfected cells
- Sequence (P30542 whole entry): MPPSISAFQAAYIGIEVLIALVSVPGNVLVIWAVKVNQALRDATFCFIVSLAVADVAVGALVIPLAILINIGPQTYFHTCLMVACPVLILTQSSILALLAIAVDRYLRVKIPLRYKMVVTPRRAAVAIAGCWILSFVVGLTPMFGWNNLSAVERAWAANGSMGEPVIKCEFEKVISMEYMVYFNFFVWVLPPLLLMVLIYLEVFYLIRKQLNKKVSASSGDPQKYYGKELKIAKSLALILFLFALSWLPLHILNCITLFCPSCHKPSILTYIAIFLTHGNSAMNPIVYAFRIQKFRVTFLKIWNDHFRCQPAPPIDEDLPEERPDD
- PROTOCOL: Radioligand competition binding to human A1 adenosine receptor (125I-ABA)
- CONDITION INFO: membranes of CHO K1 cells expressing human A1 AR, read-out: A1 (nM) binding affinity
PROPERTY NAME: Ki (nM)

P. Nc1nc(C#CC2(O)C3CC4CC(C3)CC2C4)nc2c1ncn2[C@@H]1O[C@H](C(=O)NC2CC2)C(O)C1O (stereo in doubt)
Q. Nc1nc(C#CC2(O)CC3CCC2C3)nc2c1ncn2[C@@H]1O[C@H](C(=O)NC2CC2)C(O)C1O (stereo in doubt) [Example 2]
R. Nc1nc(C#CC2(O)CC3CCC2C3)nc2c1ncn2[C@@H]1O[C@H](C(=O)NC2CC2)C(O)C1O (stereo in doubt) [Example 1]
IN: Order the items by recorded Ki; the first position goes to the largest value. Write the labels in rank order as requested.
OUT: P, Q, R
(P: 67.2 nM, Q: 18 nM, R: 10 nM)

---

- ASSAY SYSTEM: A3 AR (Homo sapiens, UniProt P0DMS8)
- Construct: expressed in transfected cells
- Sequence (P0DMS8 1-318): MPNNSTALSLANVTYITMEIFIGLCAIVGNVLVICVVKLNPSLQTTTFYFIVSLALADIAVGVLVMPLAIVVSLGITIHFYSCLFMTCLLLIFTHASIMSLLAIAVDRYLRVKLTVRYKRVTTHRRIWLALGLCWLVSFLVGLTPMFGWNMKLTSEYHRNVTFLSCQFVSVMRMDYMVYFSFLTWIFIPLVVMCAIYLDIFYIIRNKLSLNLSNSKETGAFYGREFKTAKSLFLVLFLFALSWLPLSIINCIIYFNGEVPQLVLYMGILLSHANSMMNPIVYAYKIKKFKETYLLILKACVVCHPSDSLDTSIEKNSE
- PROTOCOL: Radioligand competition binding to human A3 adenosine receptor (125I-ABA)
- CONDITION INFO: membranes of HEK 293 cells expressing A3 AR, read-out: A3 (nM) binding affinity
PROPERTY NAME: Ki (nM)

1. Nc1nc(C#CC2(O)CC3CCC2C3)nc2c1ncn2[C@@H]1O[C@H](C(=O)NC2CC2)C(O)C1O (stereo in doubt) [Example 2]
2. Nc1nc(C#CC2(O)CC3CCC2C3)nc2c1ncn2[C@@H]1O[C@H](C(=O)NC2CC2)C(O)C1O (stereo in doubt) [Example 1]
3. Nc1nc(C#CC2(O)C3CC4CC(C3)CC2C4)nc2c1ncn2[C@@H]1O[C@H](C(=O)NC2CC2)C(O)C1O (stereo in doubt) [Example 3]
IN: Order the entries by their reported Ki, beginning at the minimum. Write the labels in rank order as requested.
OUT: 2, 1, 3
(2: 7 nM, 1: 12 nM, 3: 45.4 nM)

---

- ASSAY SYSTEM: recombinant human A2A receptors (Homo sapiens, UniProt P29274)
- Construct: expressed in transfected cells; host or cells: Sf9 insect cells, viral infection, membranes
- Sequence (P29274 whole entry): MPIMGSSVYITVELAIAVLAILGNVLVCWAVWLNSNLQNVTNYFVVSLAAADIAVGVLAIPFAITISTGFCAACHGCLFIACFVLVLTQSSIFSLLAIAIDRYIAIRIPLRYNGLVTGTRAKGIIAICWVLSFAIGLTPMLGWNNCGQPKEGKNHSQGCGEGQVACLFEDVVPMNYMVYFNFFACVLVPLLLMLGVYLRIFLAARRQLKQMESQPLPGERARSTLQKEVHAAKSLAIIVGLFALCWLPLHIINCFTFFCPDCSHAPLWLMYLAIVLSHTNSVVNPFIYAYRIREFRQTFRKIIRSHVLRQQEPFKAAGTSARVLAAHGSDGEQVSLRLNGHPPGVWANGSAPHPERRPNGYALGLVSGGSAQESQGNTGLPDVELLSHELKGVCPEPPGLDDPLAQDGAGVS
- PROTOCOL: Radioligand competition binding to recombinant human A2A receptors in Sf9 cell membranes (125I-APE or 125I-ZM241385)
- CONDITION INFO: read-out: A2A (nM) binding affinity
- Experimental: Sf9 cells were cultured in Grace's medium supplemented with 10% fetal bovine serum, 2.5 μg/ml amphotericin B and 50 μg/ml gentamycin in an atmosphere of 50% N2/50% O2. […] Radioligand binding to recombinant human A2A receptors in Sf9 cell membranes was performed using either the radio labeled agonist, ^125I-APE (Luthin et al., 1995) or the radio labeled antagonist, ^125I-ZM241385 (^125I-ZM). […] Nonspecific binding was measured in the presence of 50 μM NECA. […]
PROPERTY NAME: Ki (nM)

Nc1nc(C#CC2(O)C3CC4CC(C3)CC2C4)nc2c1ncn2[C@@H]1O[C@H](C(=O)NC2CC2)C(O)C1O (stereo in doubt); 1

1. Nc1nc(C#CC2(O)CC3CCC2C3)nc2c1ncn2[C@@H]1O[C@H](C(=O)NC2CC2)C(O)C1O (stereo in doubt) [Example 1]
2. Nc1nc(C#CC2(O)CC3CCC2C3)nc2c1ncn2[C@@H]1O[C@H](C(=O)NC2CC2)C(O)C1O (stereo in doubt) [Example 2]
IN: When their Ki values are compared, which is larger, 1 or 2 ? Kindly give the label for the entry you pick.
OUT: 2
(2: 2 nM, 1: 0.6 nM)

// data source = patent US7875595B2
